# tgt: UniProt Q9BY41
# Sequence (Q9BY41 whole entry): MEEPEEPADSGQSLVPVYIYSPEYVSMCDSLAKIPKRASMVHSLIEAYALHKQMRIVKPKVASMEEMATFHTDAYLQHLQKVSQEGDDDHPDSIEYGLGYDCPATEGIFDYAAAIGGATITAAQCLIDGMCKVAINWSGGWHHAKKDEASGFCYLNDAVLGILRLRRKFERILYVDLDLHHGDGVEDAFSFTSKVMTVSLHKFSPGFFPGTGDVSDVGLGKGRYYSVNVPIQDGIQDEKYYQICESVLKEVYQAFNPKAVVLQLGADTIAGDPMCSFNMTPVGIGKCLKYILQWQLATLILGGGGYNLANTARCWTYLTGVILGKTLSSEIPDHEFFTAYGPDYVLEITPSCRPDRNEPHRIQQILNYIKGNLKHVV
The following compounds were reported with IC50 values on UniProt Q9BY41 in different studies.
Write the answer as a number in nM, unit excluded.

Problem: Query IC50 on UniProt Q9BY41 for `Cc1nc2c(c(N(C)c3ccc(OCCCC(=O)NO)cc3)n1)CCC2`
Result: 6190

Problem: Query IC50 on UniProt Q9BY41 for `O=C(COc1ccc(C[C@H](NC(=O)OCc2ccccc2)C(=O)Nc2ccccc2)cc1)NO`
Result: 197

Problem: Query IC50 on UniProt Q9BY41 for `Cc1ccc(-c2cc(C(F)(F)F)nn2-c2ccc(S(=O)(=O)NCCCCCCC(=O)NO)cc2)cc1`
Result: 412

Problem: Query IC50 on UniProt Q9BY41 for `O=C(CCCCCCCC(=O)c1ccc(-c2ccccc2)cc1)NO`
Result: 5

Problem: Query IC50 on UniProt Q9BY41 for `Nc1ncnc2c1c(-c1ccc(Cl)cc1)nn2-c1cccc(-c2cnnn2CCCCCC(=O)NO)c1`
Result: 2310

Problem: Query IC50 on UniProt Q9BY41 for `C[n+]1ccoc1I`
Result: 1200

Problem: Query IC50 on UniProt Q9BY41 for `COc1ccc(N(C)c2nc(C)nc3ccccc23)cc1OCCCCCC(=O)NO`
Result: 1530

Problem: Query IC50 on UniProt Q9BY41 for `COc1ccc(NC(=O)[C@@H]2Cc3ccc(OCC(=O)NO)cc3CN2)cc1`
Result: 5570
